Listed here: items and their measured inhibition.
ASSAY SYSTEM: L-lactate dehydrogenase (Plasmodium falciparum (isolate CDC / Honduras)) (UniProt Q27743)
Sequence (Q27743 whole entry, looked up): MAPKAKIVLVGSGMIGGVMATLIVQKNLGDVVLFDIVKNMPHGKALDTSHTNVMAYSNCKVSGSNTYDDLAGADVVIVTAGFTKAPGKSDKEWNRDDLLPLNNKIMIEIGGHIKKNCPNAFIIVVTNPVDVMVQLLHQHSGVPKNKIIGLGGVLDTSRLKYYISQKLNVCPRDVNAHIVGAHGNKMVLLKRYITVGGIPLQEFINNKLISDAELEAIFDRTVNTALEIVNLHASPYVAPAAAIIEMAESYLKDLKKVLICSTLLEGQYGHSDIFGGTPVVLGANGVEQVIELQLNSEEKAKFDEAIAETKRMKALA
TEST METHOD NOTES: PfLDH activity inhibition – cell lysate, 3D7 strain, counter-screen for P. falciparum growth inhibition project (AID 2304);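 note: 0% = vehicle and 100% = reference inhibitor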
MEASUREMENT SETUP: P. falciparum 3D7 crude extract, LDH APAD/NBT absorbance; at 2 µM; active compounds read high
Activity calls are given as the source filed them. The rule behind the calls is not given here.

{"columns": ["CHEM SMILES", "inhibition"],
 "data": [
  ["CC(C)c1ccc(NC(=O)c2ccc(C(=O)NCC3CCN(CC4CCCCC4)CC3)cc2)cc1", "-3% (inactive)"],
  ["COc1ccccc1CNC(=O)c1ccc(N2CCN(c3ccncc3)CC2)cn1", "2% (inactive)"],
  ["O=C(/C=C/c1ccc(Cl)c(Cl)c1)NCCCCCN1CCC(NC(=O)Nc2ccc([N+](=O)[O-])cc2)CC1", "2% (inactive)"],
  ["Cc1cc(NCC(C)C)c2[nH]nc(-c3ccccc3)c2n1", "2% (inactive)"],
  ["CS(=O)(=O)NCCCNCc1cccc(-c2ccc(-c3nc4ccc(C(F)(F)F)cc4[nH]3)s2)c1", "-8% (inactive)"],
  ["COc1ccc(OCc2ccccn2)c(C2CCN(CCCCNC(=O)c3ccc(NC(=O)c4ccc(Cl)cc4)cc3)CC2)c1", "4% (inactive)"],
  ["O=C(Nc1cccc(CN2CCCN(Cc3ccc4c(c3)OCO4)CC2)c1)c1cc2ccccc2s1", "2% (inactive)"],
  ["CC(C)CCn1c(Sc2ccc(C#N)c([N+](=O)[O-])c2)nnc1-c1ccc(Cl)cc1", "-1% (inactive)"],
  ["O=C(Nc1ccccc1Cc1ccccc1)c1ccccc1[N+](=O)[O-]", "3% (inactive)"],
  ["O=C(Nc1ccc(Cl)cc1)c1cc(Cl)ccc1NC(=O)C1(c2ccc(Cl)cc2)CCCC1", "-4% (inactive)"],
  ["Cn1cncc1-c1cc2c(Nc3ccc(OCc4ccccc4)cc3)ncnc2cn1", "4% (inactive)"],
  ["O=C(NCCCCCN1CCC(c2c[nH]c3ccccc23)CC1)Nc1ccc(Cl)c(Cl)c1", "6% (inactive)"],
  ["CC(=O)Nc1ccc(C(=O)N2CCN(c3ccnc4cc(Cl)ccc34)CC2)cc1", "-5% (inactive)"],
  ["CCOCCCn1c(=N)c(C(=O)NCc2ccc(F)cc2)cc2c(=O)n3cccc(C)c3nc21", "5% (inactive)"],
  ["COc1cc2nc(-c3ccccc3)nc(N3CCN(CC(=O)N4CCCC4)CC3)c2cc1OC", "-1% (inactive)"]
]}

###

TEST METHOD NOTES: human hepatoma cell viability loss – ATP luminescence, cytotoxicity control for P. falciparum antimalarial project, primary screen (AID 2303);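 note: 0% = DMSO wells and 100% = digitonin-killed cells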
MEASUREMENT SETUP: HepG2 viability, 24-48 h, at 10 µM, active compounds read high
inhibition by entry:

{"columns": ["COMPOUND", "inhibition, %"],
 "data": [
  ["Cc1cc(NCCC(=O)NCCOc2ccccc2)nc(Nc2ccccc2)n1", 26],
  ["O=C(O[C@H]1CN[C@H](C#Cc2cc3c(Nc4ccc(OCc5cccc(F)c5)c(Cl)c4)ncnc3s2)C1)N1CCCC1", 11],
  ["COC(=O)c1ccccc1N1CCN(CCCCNC(=O)c2ccc(NC(=O)c3cc(Cl)cc(Cl)c3)cc2)CC1", 20],
  ["Cc1cc(C(=O)Nc2ccc3c(c2)CCN3C2CCN(Cc3cc(F)cc(F)c3F)C2)no1 (stereo not given)", -5],
  ["CCn1ncc(Cl)c1CN(C)S(=O)(=O)c1ccc(Br)cc1", 9]
]}

###

TEST METHOD NOTES: antimalarial activity against Dd2 strain (AID 2302);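 note: 0% = DMSO untreated growth and 100% = chloroquine plus artemisinin killed control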
MEASUREMENT SETUP: P. falciparum Dd2 in RBCs, LDH growth readout, 72 h; at 2 µM; active compounds read high
Parameter growth inhibition: see the listing below.

{"columns": ["MOLECULE", "UNIT OF MEASUREMENT", "growth inhibition"],
 "data": [
  ["CCN(CC)C(=O)C1CCCN(c2cc(C)nc(Nc3ccc(Cl)cc3)n2)C1 (stereo not given)", "%", 64],
  ["COCCNC(=O)C(CNC(=O)c1ccc2c(c1)OCO2)NC(=O)c1ccc(-c2ccccc2)cc1 (stereo not given)", "%", 3],
  ["O=C(Nc1ccccc1)c1cnc[nH]1", "%", -1],
  ["CN(C)CCOc1cc(NC(=O)c2ccc(-c3ccc(Cl)cc3Cl)cc2)ccc1-c1ccccc1", "%", 26],
  ["Nc1cccc(CNCc2ccc(-c3ccc(-c4nc5ccc(F)cc5[nH]4)s3)cc2)c1", "%", 93]
]}

###

# inhibition values compiled below
ASSAY SYSTEM: L-lactate dehydrogenase (Plasmodium falciparum (isolate CDC / Honduras))
TEST METHOD NOTES: PfLDH activity inhibition – cell lysate, 3D7 strain, counter-screen for P. falciparum growth inhibition project (AID 2304);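 note: 0% = vehicle and 100% = reference inhibitor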
MEASUREMENT SETUP: P. falciparum 3D7 crude extract, LDH APAD/NBT absorbance; at 2 µM; active compounds read high

{"columns": ["COMPOUND", "ASSAY SYSTEM", "inhibition (%)"],
 "data": [
  ["CC(C)NCc1cccc(-c2ccc(-c3nc4ccc(C(F)(F)F)cc4[nH]3)cc2)c1", "L-lactate dehydrogenase (Plasmodium falciparum (isolate CDC / Honduras))", -6],
  ["CC(C)COc1ccc(Cl)cc1Cc1ccc(-c2nc3ccc(Cl)cc3[nH]2)o1", "L-lactate dehydrogenase (Plasmodium falciparum (isolate CDC / Honduras))", -1],
  ["COc1cc(OCCCCCCON2C(N)=NC(N)=NC2(C)C)cc(OC)c1OC", "L-lactate dehydrogenase (Plasmodium falciparum (isolate CDC / Honduras))", -5],
  ["COc1ccc(-c2ccc(CNCc3ccc(F)cc3)cc2)cc1S(=O)(=O)NCCN1CCCC1", "L-lactate dehydrogenase (Plasmodium falciparum (isolate CDC / Honduras))", 3],
  ["COc1ccc2nc(NC3=NC(c4ccccn4)(c4ccccn4)C(=O)N3C)[nH]c2c1", "L-lactate dehydrogenase (Plasmodium falciparum (isolate CDC / Honduras))", 1],
  ["CC(C)OC(=O)c1ccc(NC(=O)N[C@@H](Cc2ccc(O)cc2)C(=O)NC2CCC(CCN3[C@@H]4CC[C@H]3c3ccccc34)CC2)cc1 (some centres undefined)", "L-lactate dehydrogenase (Plasmodium falciparum (isolate CDC / Honduras))", 3],
  ["COc1cc(C(=O)N2CCOC(CCN3CC[C@@H]4c5ccccc5C[C@@H]43)(c3ccc(Cl)c(Cl)c3)C2)cc(OC)c1OC (some centres undefined)", "L-lactate dehydrogenase (Plasmodium falciparum (isolate CDC / Honduras))", 1],
  ["O=C(Nc1ccc([N+](=O)[O-])cc1Cl)c1cc2ccccc2cc1O", "L-lactate dehydrogenase (Plasmodium falciparum (isolate CDC / Honduras))", 0],
  ["CC(=O)CSC(C=Cc1ccc(N(C)C)cc1)=Nc1ccccc1", "L-lactate dehydrogenase (Plasmodium falciparum (isolate CDC / Honduras))", -4]
]}

###

molecules and their reported growth inhibition
TEST METHOD NOTES: inhibition of 3D7 malaria parasite growth – strain 3D7 (AID 2306);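 note: 0% = DMSO wells and 100% = chloroquine plus artemisinin control wells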
MEASUREMENT SETUP: P. falciparum 3D7 erythrocytic growth, LDH absorbance, 72 h; at 2 µM; active compounds read high

{"columns": ["MOLECULE", "UNIT OF MEASUREMENT", "growth inhibition"],
 "data": [
  ["O=C(/C=C/c1ccc(Cl)c(Cl)c1)N1CCC(CN2CCC(c3c[nH]c4ncccc34)CC2)CC1", "%", 84],
  ["CCOC(=O)c1ccc(NC(=O)Nc2cccc(-c3ccc(-c4nc5ccc(F)cc5[nH]4)cc3)c2)cc1", "%", 101],
  ["CC(=O)Nc1ccc(C(=O)N2CCN(c3ccnc4cc(Cl)ccc34)CC2)cc1", "%", 93],
  ["CC[C@H](C)CNC(=O)c1cncc(-c2ccc(CNCC3CNCCCO3)cc2)c1 (some centres undefined)", "%", 100]
]}

###

TEST METHOD NOTES: antimalarial activity against Dd2 strain (AID 2302);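 note: 0% = DMSO untreated growth and 100% = chloroquine plus artemisinin killed control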
MEASUREMENT SETUP: P. falciparum Dd2 in RBCs, LDH growth readout, 72 h; at 2 µM; active compounds read high
Quick list: growth inhibition per entry.
RECORDED METRIC: growth inhibition (%)

{"columns": ["CHEM SMILES", "RECORDED METRIC", "UNIT OF MEASUREMENT", "MEAS VALUE"],
 "data": [
  ["COc1cc2nc(N3CCC(c4ccccc4)CC3)nc(NCc3ccc(=O)[nH]c3)c2cc1OC", "growth inhibition", "%", 58],
  ["O=C(Cc1ccccc1)NC1(c2ccccc2)CCN(CCc2c[nH]c3ccc(F)cc23)CC1", "growth inhibition", "%", 62],
  ["CCOc1cc(CC)ccc1C1CCN(CCN2CCC(CNC(=O)c3ccc(-c4ccc(C#N)cc4)cc3)CC2)CC1", "growth inhibition", "%", 100]
]}
